System: tomato plants
METHOD_NOTES: Root mass of tomato plants in the soil infectivity assay
SETUP_CONDITIONS: 45 μM in soil, 8 weeks
ASSAY_READOUT: Normalized root mass (relative to DMSO control)

• Clc1ccc(-c2cn3ccsc3n2)cc1Cl = 1.25
• Cc1c(-c2cccc(F)c2)nc2sccn12 = 1.35
• Fc1ccccc1-c1cn2ccsc2n1 = 1.13
• Clc1ccccc1-c1cn2ccsc2n1 = 1.42
• Cc1cn2cc(-c3cccc(Cl)c3)nc2s1 = 1.43
• Cc1cn2cc(-c3cccc(Br)c3)nc2s1 = 1.31
• Cc1cn2cc(-c3ccccc3Br)nc2s1 = 1.18

* * *

Test system: tomato plants
METHOD_NOTES: Root mass of tomato plants in the soil infectivity assay
SETUP_CONDITIONS: 45 μM in soil, 8 weeks
// reported Normalized root mass (relative to DMSO control) for each item listed
ASSAY_READOUT: Normalized root mass (relative to DMSO control)

* Cc1c(-c2ccccc2Cl)nc2sccn12 [I-28] | 1.37
* Cc1cn2cc(-c3ccccc3F)nc2s1 [I-21] | 1.24
* c1ccc(-c2noc(-c3cccs3)n2)cc1 [tioxazafen, reference compound] | 1.09
* Cc1c(-c2ccccc2F)nc2sccn12 [I-19] | 1.27
* Cc1c(-c2cccc(Br)c2)nc2sccn12 [I-35] | 1.26
* Clc1ccc(-c2cn3ccsc3n2)c(Cl)c1 [I-32] | 1.31

* * *

METHOD_NOTES: Zebrafish dose-response experiments
Type: in vivo, Danio rerio
SETUP_CONDITIONS: TLAB (wild-type), zebrafish (Danio rerio), in vivo; bound inferred from the tested concentrations, 3 days exposure
ASSAY_READOUT: LC50 at 3 days

* Clc1ccc(-c2cn3ccsc3n2)nc1 | > 45 µM

* * *

Test system: M. incognita J2 larvae
METHOD_NOTES: Meloidogyne incognita in vitro larval mobility assay
Assay type: in vivo
SETUP_CONDITIONS: Meloidogyne incognita, 96 h, 45 μM, 4 days, replicate 1; read-out: Replicate 1 % Immobile
ASSAY_READOUT: pest or weed control at 45 µM (%)

• Cc1c(-c2ccc(F)cc2)nc2sccn12 [I-13] = 35.3
• Clc1ccc(-c2cn3ccsc3n2)cc1Cl [I-31] = 34.1
• Cc1cn2cc(-c3cccc(Cl)c3)nc2s1 [I-26] = 54.4
• Cc1cn2cc(-c3ccccc3F)nc2s1 [I-21] = 51
• O=C(NCCc1ncc(C(F)(F)F)cc1Cl)c1ccccc1C(F)(F)F [Fluopyram, fluopyram, reference compound] = 100
• CCOc1ccc(-c2nc3sccn3c2C=O)cc1 [I-154] = 73.6
• COc1ccc(-c2cn3ccsc3n2)cc1 [I-142] = 36.2
• COCc1nn2cc(-c3ccc(Cl)cc3)nc2s1 [I-144] = 43.1
• Cc1cn2cc(-c3ccc(OC(F)F)cc3)nc2s1 [I-54] = 31.1
• Clc1ccc(-c2cn3ccoc3n2)cc1 [I-47, 6-(4-chlorophenyl)imidazo[2,1-b]oxazole] = 95.9
• Brc1nn2cc(-c3ccccc3)nc2s1 [I-159] = 97.8

* * *

Tested on: M. hapla eggs
METHOD_NOTES: Meloidogyne hapla in vitro egg hatch assay
Type: in vivo
SETUP_CONDITIONS: 45 μM, 8 days; z-score vs 8 untreated DMSO wells
ASSAY_READOUT: Number of Hatched Eggs z-score

• Clc1cccc(-c2cn3ccsc3n2)c1 = [4.30]
• Clc1ccc(-c2cn3ccoc3n2)cc1 [I-47, 6-(4-chlorophenyl)imidazo[2,1-b]oxazole] = [4.30]
• Cc1csc2nc(-c3cccc(Cl)c3)cn12 = [3.31]
• Cc1csc(-c2cn3cc(C)sc3n2)c1 = [4.63]
• Brc1cccc(-c2cn3ccsc3n2)c1 = [4.30]
• Cc1cn2cc(-c3ccc(N)cc3)nc2s1 = [3.64]
• Cc1csc2nc(-c3ccc(OC(F)F)cc3)cn12 = [3.31]
• N#Cc1ccc(-c2cn3ccsc3n2)cc1 = [3.64]
• COCc1nn2cc(-c3ccc(Cl)cc3)nc2s1 = [3.31]
• Fc1cccc(-c2cn3ccsc3n2)c1 = [4.30]
• CCc1ccc(-c2cn3c(C)csc3n2)cc1 = [3.97]
• Brc1ccc(-c2cn3c(n2)SCC3)cc1 = [4.63]
• Cc1c(-c2ccc(Cl)cc2)nc2sccn12 = [4.30]
• Cc1sc2nc(-c3ccc(Cl)s3)cn2c1C = [3.31]
• COc1c(-c2cn3ccsc3n2)ccc2ccccc12 = [3.64]
• CCOC(=O)c1ccc(-c2cn3ccsc3n2)cc1 = [3.31]
• COCc1nn2cc(-c3cccc(OC)c3)nc2s1 = [3.31]
• Ic1ccccc1-c1cn2ccsc2n1 = [3.31]
• c1ccc(-c2noc(-c3cccs3)n2)cc1 [tioxazafen, reference compound] = [4.30]
• O=C(NCCc1ncc(C(F)(F)F)cc1Cl)c1ccccc1C(F)(F)F [Fluopyram, fluopyram, reference compound] = [4.63]
• Cc1cn2cc(-c3cccc(F)c3)nc2s1 = [3.64]
• Cc1csc2nc(-c3ccccc3Cl)cn12 = [3.31]
• O=Cc1c(-c2ccccc2)nc2sccn12 = [4.30]
• c1ccc2cc(-c3cn4ccsc4n3)ccc2c1 = [3.97]
